Source listed as ChEMBL document CHEMBL3433997.

biological target: Hexose transporter 1 (Plasmodium falciparum); test: ST_JUDE_LEISH: Cytotoxicity at 2uM final concentration against transgenic Leishmania Mexicana promastigotes LmPfHT that are glucose transport deficient and complemented with the Plasmodium falciparum hexose transporter. Activity is measured by DNA content using SYBR green in vitro; format: functional
value.kind: inhibition (%)
Note: unit % is implicit; provide only the numeric part.

Data request: Fill blank: measured inhibition of the compound Cc1c(C(=O)N2CCCC(C(F)(F)F)C2)sc2cccc(F)c12 (stereo not given) is ____.
Data returned: 6.02

Data request: Same again, this time with CCCOc1cc(OCCC)cc(-c2ccc(C(=O)Nc3ccc4ccc(C)nc4c3)c(=O)[nH]2)c1
Data returned: 0.78

Data request: Same again, this time with Cc1nc(Nc2cc(Cl)ccc2O)nc(Nc2cc(Cl)ccc2O)c1[N+](=O)[O-]
Data returned: 3.14

Data request: Same again, this time with OC1(c2ccccc2)CCN(Cc2cccc(-c3c[nH]c4nc(NC5CCCC5)ncc34)c2)C1 (stereo not given)
Data returned: 3.3

Data request: Same again, this time with CCCCC(CC)CN1C(=O)C(c2ccccc2)(c2ccccc2)N=C1N (stereo not given)
Data returned: 0.02
